# credit: ChEMBL document CHEMBL5634160

# System: CYP2B6
# Protocol: Inhibition of CYP2B6 in rat liver microsomes assessed as remaining activity at 100 uM measured after 30 mins by LC-MS/MS analysis
# Type: ADME, Microsome
# Assay Context: read-out: Activity
Experimental Endpoint: activity at 0.5 h, 100 µM (%)

1) COc1cc(/C=N/Nc2nnc3n2N=C(c2ccccc2)CS3)cc(OC)c1O    98.7

---

# Protocol: Cytotoxicity against human HEK293 cells assessed as cell viability at 150 uM measured after 24 hrs by MTT assay relative to control
# Format: toxicity, cell-based
# Assay Context: read-out: Activity
Experimental Endpoint: viability at 24 h, 150 µM (%)

1) COc1cc(/C=N/Nc2nnc3n2N=C(c2ccccc2)CS3)cc(OC)c1O    81.2

---

# Test system: CYP2C19
# Protocol: Inhibition of CYP2C19 in rat liver microsomes assessed as remaining activity at 100 uM measured after 30 mins by LC-MS/MS analysis
# Assay type: ADME, Microsome
# Assay Context: read-out: Activity
Experimental Endpoint: activity at 0.5 h, 100 µM

1) COc1cc(/C=N/Nc2nnc3n2N=C(c2ccccc2)CS3)cc(OC)c1O    75.4%

---

# Measurement Target: CYP1A2 (Rattus norvegicus)
# Sequence (P04799 whole entry): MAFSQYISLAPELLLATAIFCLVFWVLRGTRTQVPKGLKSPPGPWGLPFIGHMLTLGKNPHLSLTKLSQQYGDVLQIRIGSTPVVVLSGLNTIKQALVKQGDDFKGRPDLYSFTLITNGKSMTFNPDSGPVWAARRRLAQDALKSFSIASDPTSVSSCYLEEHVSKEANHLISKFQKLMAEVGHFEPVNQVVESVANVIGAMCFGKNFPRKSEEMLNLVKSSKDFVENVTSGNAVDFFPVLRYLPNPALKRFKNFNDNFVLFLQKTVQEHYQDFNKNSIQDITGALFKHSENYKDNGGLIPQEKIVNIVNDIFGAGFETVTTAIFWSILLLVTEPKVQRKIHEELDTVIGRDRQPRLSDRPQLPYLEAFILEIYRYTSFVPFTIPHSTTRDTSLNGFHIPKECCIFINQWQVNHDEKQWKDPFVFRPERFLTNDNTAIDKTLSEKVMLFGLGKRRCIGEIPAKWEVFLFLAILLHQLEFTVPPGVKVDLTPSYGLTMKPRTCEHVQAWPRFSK
# Protocol: Inhibition of CYP1A2 in rat liver microsomes assessed as remaining activity at 100 uM measured after 30 mins by LC-MS/MS analysis
# Type: ADME, Microsome
# Assay Context: read-out: Activity
Experimental Endpoint: activity at 0.5 h, 100 µM (%)

1. COc1cc(/C=N/Nc2nnc3n2N=C(c2ccccc2)CS3)cc(OC)c1O    77.7
